# test-system: RPL7 (UniProt P18124)
# protocol-notes: Kd (EC50 corrected by depletion factor)
readout-type: pKd
Would you please state pKd, meaning minus log10 of the concentration in mol/L, as a bare number?

Data point: "AAUAAA" ; pKd = 5.40

----------
# test-system: P4HA2 (UniProt O15460)
# Sequence (O15460 whole entry): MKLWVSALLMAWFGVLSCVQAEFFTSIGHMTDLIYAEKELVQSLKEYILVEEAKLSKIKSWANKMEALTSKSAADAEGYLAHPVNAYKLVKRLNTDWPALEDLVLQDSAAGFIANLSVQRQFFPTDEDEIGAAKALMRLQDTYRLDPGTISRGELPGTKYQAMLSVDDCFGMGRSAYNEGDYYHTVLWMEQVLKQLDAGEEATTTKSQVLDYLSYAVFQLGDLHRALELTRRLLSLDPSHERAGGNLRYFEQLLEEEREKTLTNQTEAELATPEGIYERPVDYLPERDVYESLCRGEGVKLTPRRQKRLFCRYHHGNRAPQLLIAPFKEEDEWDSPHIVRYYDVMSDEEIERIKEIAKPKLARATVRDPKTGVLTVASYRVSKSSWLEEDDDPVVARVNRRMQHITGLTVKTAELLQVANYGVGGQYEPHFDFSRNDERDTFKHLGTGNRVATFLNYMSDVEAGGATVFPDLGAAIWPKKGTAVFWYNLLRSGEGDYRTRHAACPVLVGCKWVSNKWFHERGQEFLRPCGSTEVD
# protocol-notes: EC50 of free RNA motif oligo competing protein binding to immobilised probe
readout-type: pEC50
Would you please state pEC50, meaning minus log10 of the concentration in mol/L, as a bare number?

Data point: "AAUAAA" ; pEC50 = 7.41

----------
# test-system: SRSF9 (UniProt Q13242)
# Sequence (Q13242 whole entry): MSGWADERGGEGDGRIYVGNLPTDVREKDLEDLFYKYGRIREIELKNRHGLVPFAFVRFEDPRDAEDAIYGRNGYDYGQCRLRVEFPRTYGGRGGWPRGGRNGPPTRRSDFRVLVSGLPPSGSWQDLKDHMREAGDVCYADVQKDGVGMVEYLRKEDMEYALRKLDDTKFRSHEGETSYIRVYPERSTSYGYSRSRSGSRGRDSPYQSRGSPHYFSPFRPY
# protocol-notes: EC50 of free RNA motif oligo competing protein binding to immobilised probe
readout-type: pEC50
Would you please state pEC50, meaning minus log10 of the concentration in mol/L, as a bare number?

UAUUUAU ... 5.10

Data point: "CUGUCCU" ; pEC50 = 5.34

----------
# test-system: CPSF4 (UniProt O95639)
# Sequence (O95639 whole entry): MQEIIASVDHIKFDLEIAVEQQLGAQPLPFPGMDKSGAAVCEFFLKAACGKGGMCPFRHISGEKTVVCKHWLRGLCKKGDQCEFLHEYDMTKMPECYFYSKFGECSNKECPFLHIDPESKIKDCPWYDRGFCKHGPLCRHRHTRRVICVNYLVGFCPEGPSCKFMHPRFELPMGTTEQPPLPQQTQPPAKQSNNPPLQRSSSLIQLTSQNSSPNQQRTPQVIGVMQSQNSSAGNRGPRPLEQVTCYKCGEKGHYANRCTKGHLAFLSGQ
# protocol-notes: Kd (EC50 corrected by depletion factor)
readout-type: pKd
Would you please state pKd, meaning minus log10 of the concentration in mol/L, as a bare number?

Data point: "AAUAAA" ; pKd = 8.23

----------
# test-system: CPSF1 (UniProt Q10570)
# Sequence: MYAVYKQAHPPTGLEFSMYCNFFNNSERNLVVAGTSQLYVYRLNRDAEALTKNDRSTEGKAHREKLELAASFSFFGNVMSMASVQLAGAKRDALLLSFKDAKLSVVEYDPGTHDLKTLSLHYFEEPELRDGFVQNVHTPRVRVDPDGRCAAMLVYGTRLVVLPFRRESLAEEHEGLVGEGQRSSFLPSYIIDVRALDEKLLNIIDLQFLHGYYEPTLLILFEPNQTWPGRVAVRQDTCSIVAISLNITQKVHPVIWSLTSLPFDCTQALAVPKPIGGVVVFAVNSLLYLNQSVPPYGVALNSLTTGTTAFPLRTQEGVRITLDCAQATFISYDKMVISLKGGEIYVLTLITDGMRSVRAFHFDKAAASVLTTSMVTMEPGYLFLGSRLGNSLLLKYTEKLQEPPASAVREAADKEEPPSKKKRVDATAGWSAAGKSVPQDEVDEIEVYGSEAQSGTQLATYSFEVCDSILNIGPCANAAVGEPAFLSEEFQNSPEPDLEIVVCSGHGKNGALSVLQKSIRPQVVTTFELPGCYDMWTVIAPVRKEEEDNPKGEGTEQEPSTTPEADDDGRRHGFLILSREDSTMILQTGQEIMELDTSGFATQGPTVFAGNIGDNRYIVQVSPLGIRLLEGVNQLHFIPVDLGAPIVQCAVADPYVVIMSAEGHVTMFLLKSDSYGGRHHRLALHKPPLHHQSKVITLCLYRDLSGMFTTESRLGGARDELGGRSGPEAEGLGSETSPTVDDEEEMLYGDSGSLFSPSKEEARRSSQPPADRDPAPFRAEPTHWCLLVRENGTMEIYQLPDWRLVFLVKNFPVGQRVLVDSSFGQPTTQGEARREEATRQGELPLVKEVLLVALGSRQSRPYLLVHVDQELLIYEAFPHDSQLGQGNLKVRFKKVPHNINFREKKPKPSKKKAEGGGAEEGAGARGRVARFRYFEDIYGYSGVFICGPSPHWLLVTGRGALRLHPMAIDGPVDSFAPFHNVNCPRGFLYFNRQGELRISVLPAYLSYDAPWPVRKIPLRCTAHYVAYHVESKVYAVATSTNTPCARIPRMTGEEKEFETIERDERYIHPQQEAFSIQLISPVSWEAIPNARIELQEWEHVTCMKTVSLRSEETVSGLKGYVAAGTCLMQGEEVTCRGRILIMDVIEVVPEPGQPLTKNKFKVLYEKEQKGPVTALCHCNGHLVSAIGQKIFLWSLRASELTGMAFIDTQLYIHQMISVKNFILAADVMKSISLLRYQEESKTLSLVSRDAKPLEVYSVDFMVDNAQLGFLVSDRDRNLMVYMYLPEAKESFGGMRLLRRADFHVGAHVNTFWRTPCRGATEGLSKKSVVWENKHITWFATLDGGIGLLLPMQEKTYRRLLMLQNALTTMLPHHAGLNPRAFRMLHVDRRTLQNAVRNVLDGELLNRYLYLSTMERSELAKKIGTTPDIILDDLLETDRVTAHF
# protocol-notes: EC50 of free RNA motif oligo competing protein binding to immobilised probe
readout-type: EC50 (nM)
# unit: nM | format: bare number

UAUUUAU ... 1710

Next up:
Data point: "AAUAAA" ; EC50 = 64.4
